The reported measurements were obtained from paper PMC9221290.

- assay explanation: in vitro
- experimental context: human, % of cell viability compared to control, 1. measurement, HepG2, 60 µM
Kindly state viability at 60 µM for each of the entries shown.
Provide the reading as a plain figure in %.

Record COc1ccc2cc3[n+](cc2c1OCc1ccccc1)CCc1cc2c(cc1-3)OCO2 [16a, 9-O-benzylberberine chloride] . Reported viability at 60 µM: 41.5

Record COc1ccc2cc3[n+](cc2c1OCc1cccc(C)c1)CCc1cc2c(cc1-3)OCO2 [16c, 9-O-(3-methylbenzyl)berberine chloride] . Reported viability at 60 µM: 53.3

* * *

- assay explanation: in vitro
- experimental context: human, % of cell viability compared to control, 2. measurement, HepG2, 1 µM
parameter: viability at 1 µM (%)
Provide the reading as a plain figure in %.

Record COc1ccc2cc3[n+](cc2c1OCc1ccc(Cl)c(Cl)c1)CCc1cc2c(cc1-3)OCO2 [16k] . Reported viability at 1 µM: 97.8

Record COc1ccc2cc3[n+](cc2c1OCc1ccccc1)CCc1cc2c(cc1-3)OCO2 [16a, 9-O-benzylberberine chloride] . Reported viability at 1 µM: 87.9

Record COc1ccc2cc3[n+](cc2c1OCc1ccc(Br)cc1)CCc1cc2c(cc1-3)OCO2 [16g, 9-O-(4-brombenzyl)berberine chloride] . Reported viability at 1 µM: 96.5

Record COc1ccc2cc3[n+](cc2c1OCc1cccc(Br)c1)CCc1cc2c(cc1-3)OCO2 [16f, 9-O-(3-brombenzyl)berberine chloride] . Reported viability at 1 µM: 104

Record COc1ccc2cc3[n+](cc2c1OCc1cccc(Cl)c1)CCc1cc2c(cc1-3)OCO2 [16h, 9-O-(3-chlorbenzyl)berberine chloride] . Reported viability at 1 µM: 94.6

Record COc1ccc2cc3[n+](cc2c1OCc1cccc(C)c1)CCc1cc2c(cc1-3)OCO2 [16c, 9-O-(3-methylbenzyl)berberine chloride] . Reported viability at 1 µM: 88.3

Record COc1ccc2cc3[n+](cc2c1OCc1ccccc1C)CCc1cc2c(cc1-3)OCO2 [16b, 9-O-(2-methylbenzyl)berberine chloride] . Reported viability at 1 µM: 97.8

Record COc1ccc2cc3[n+](cc2c1OCc1ccc(C)cc1)CCc1cc2c(cc1-3)OCO2 [16d, 9-O-(4-methylbenzyl)berberine chloride] . Reported viability at 1 µM: 92.6

Record COc1ccc2cc3[n+](cc2c1OCc1ccc(Cl)cc1)CCc1cc2c(cc1-3)OCO2 [16i, 9-O-(4-chlorbenzyl)berberine chloride] . Reported viability at 1 µM: 93.6

Record COc1ccc2cc3[n+](cc2c1OCc1ccccc1Br)CCc1cc2c(cc1-3)OCO2 [16e, 9-O-(2-brombenzyl)berberine chloride] . Reported viability at 1 µM: 93.8

* * *

- assay explanation: in vitro
- experimental context: human, % of cell viability compared to control, 2. measurement, HepG2, 10 µM
Grouping by measured viability at 10 µM is done with the following cut points: label 0 (below 50%), label 1 (50% to below 60%), label 2 (60% or more)

Bin? COc1ccc2cc3[n+](cc2c1OCc1ccc(Cl)c(Cl)c1)CCc1cc2c(cc1-3)OCO2 [16k]
label 0

Bin? COc1ccc2cc3[n+](cc2c1OCc1cccc(Br)c1)CCc1cc2c(cc1-3)OCO2 [16f, 9-O-(3-brombenzyl)berberine chloride]
label 1

Bin? COc1ccc2cc3[n+](cc2c1OCc1ccc(C)cc1)CCc1cc2c(cc1-3)OCO2 [16d, 9-O-(4-methylbenzyl)berberine chloride]
label 0

Bin? COc1ccc2cc3[n+](cc2c1OCc1ccc(Cl)cc1)CCc1cc2c(cc1-3)OCO2 [16i, 9-O-(4-chlorbenzyl)berberine chloride]
label 1

Bin? COc1ccc2cc3[n+](cc2c1OCc1ccccc1Br)CCc1cc2c(cc1-3)OCO2 [16e, 9-O-(2-brombenzyl)berberine chloride]
label 1

Bin? COc1ccc2cc3[n+](cc2c1OCc1cccc(C)c1)CCc1cc2c(cc1-3)OCO2 [16c, 9-O-(3-methylbenzyl)berberine chloride]
label 2

Bin? COc1ccc2cc3[n+](cc2c1OCc1ccccc1C)CCc1cc2c(cc1-3)OCO2 [16b, 9-O-(2-methylbenzyl)berberine chloride]
label 2

Bin? COc1ccc2cc3[n+](cc2c1OCc1cccc(Cl)c1)CCc1cc2c(cc1-3)OCO2 [16h, 9-O-(3-chlorbenzyl)berberine chloride]
label 1

* * *

- assay explanation: in vitro
- experimental context: human, % of cell viability compared to control, 2. measurement, HepG2, 100 µM
Rule: viability at 100 µM below 20% gives Yes. Equal to or above 20% gives No.

Given the entry COc1ccc2cc3[n+](cc2c1OCc1ccccc1C)CCc1cc2c(cc1-3)OCO2 [16b, 9-O-(2-methylbenzyl)berberine chloride] , would its reported viability at 100 µM be below 20%?
No

Given the entry COc1ccc2cc3[n+](cc2c1OCc1ccccc1)CCc1cc2c(cc1-3)OCO2 [16a, 9-O-benzylberberine chloride] , would its reported viability at 100 µM be below 20%?
Yes

Given the entry COc1ccc2cc3[n+](cc2c1OCc1ccc(Cl)c(Cl)c1)CCc1cc2c(cc1-3)OCO2 [16k] , would its reported viability at 100 µM be below 20%?
Yes

Given the entry COc1ccc2cc3[n+](cc2c1OCc1cccc(C)c1)CCc1cc2c(cc1-3)OCO2 [16c, 9-O-(3-methylbenzyl)berberine chloride] , would its reported viability at 100 µM be below 20%?
No

Given the entry COc1ccc2cc3[n+](cc2c1OCc1ccc(Br)cc1)CCc1cc2c(cc1-3)OCO2 [16g, 9-O-(4-brombenzyl)berberine chloride] , would its reported viability at 100 µM be below 20%?
No

Given the entry COc1ccc2cc3[n+](cc2c1OCc1ccc(C)cc1)CCc1cc2c(cc1-3)OCO2 [16d, 9-O-(4-methylbenzyl)berberine chloride] , would its reported viability at 100 µM be below 20%?
Yes

Given the entry COc1ccc2cc3[n+](cc2c1OCc1cccc(Br)c1)CCc1cc2c(cc1-3)OCO2 [16f, 9-O-(3-brombenzyl)berberine chloride] , would its reported viability at 100 µM be below 20%?
Yes

Given the entry COc1ccc2cc3[n+](cc2c1OCc1cccc(Cl)c1)CCc1cc2c(cc1-3)OCO2 [16h, 9-O-(3-chlorbenzyl)berberine chloride] , would its reported viability at 100 µM be below 20%?
Yes

* * *

- assay explanation: in vitro
- experimental context: human, % of cell viability compared to control, 1. measurement, HepG2, 75 µM
Rule: viability at 75 µM below 30% gives 1 (yes). Equal to or above 30% gives 0 (no).

Given the entry COc1ccc2cc3[n+](cc2c1OCc1ccc(Cl)c(Cl)c1)CCc1cc2c(cc1-3)OCO2 [16k] , would its reported viability at 75 µM be below 30%?
1 (yes)

Given the entry COc1ccc2cc3[n+](cc2c1OCc1ccccc1C)CCc1cc2c(cc1-3)OCO2 [16b, 9-O-(2-methylbenzyl)berberine chloride] , would its reported viability at 75 µM be below 30%?
0 (no)

Given the entry COc1ccc2cc3[n+](cc2c1OCc1ccc(Br)cc1)CCc1cc2c(cc1-3)OCO2 [16g, 9-O-(4-brombenzyl)berberine chloride] , would its reported viability at 75 µM be below 30%?
1 (yes)

Given the entry COc1ccc2cc3[n+](cc2c1OCc1cccc(Br)c1)CCc1cc2c(cc1-3)OCO2 [16f, 9-O-(3-brombenzyl)berberine chloride] , would its reported viability at 75 µM be below 30%?
1 (yes)

Given the entry COc1ccc2cc3[n+](cc2c1OCc1ccc(C)cc1)CCc1cc2c(cc1-3)OCO2 [16d, 9-O-(4-methylbenzyl)berberine chloride] , would its reported viability at 75 µM be below 30%?
0 (no)

Given the entry COc1ccc2cc3[n+](cc2c1OCc1cccc(Cl)c1)CCc1cc2c(cc1-3)OCO2 [16h, 9-O-(3-chlorbenzyl)berberine chloride] , would its reported viability at 75 µM be below 30%?
1 (yes)

* * *

- assay explanation: in vitro
- experimental context: human, % of cell viability compared to control, 1. measurement, HepG2, 20 µM
parameter: viability at 20 µM (%)
Provide the reading as a plain figure in %.

Record COc1ccc2cc3[n+](cc2c1OCc1cccc(C)c1)CCc1cc2c(cc1-3)OCO2 [16c, 9-O-(3-methylbenzyl)berberine chloride] . Reported viability at 20 µM: 58.4

Record COc1ccc2cc3[n+](cc2c1OCc1ccccc1)CCc1cc2c(cc1-3)OCO2 [16a, 9-O-benzylberberine chloride] . Reported viability at 20 µM: 59.4

Record COc1ccc2cc3[n+](cc2c1OCc1ccccc1Br)CCc1cc2c(cc1-3)OCO2 [16e, 9-O-(2-brombenzyl)berberine chloride] . Reported viability at 20 µM: 40.7

Record COc1ccc2cc3[n+](cc2c1OCc1ccc(Cl)cc1)CCc1cc2c(cc1-3)OCO2 [16i, 9-O-(4-chlorbenzyl)berberine chloride] . Reported viability at 20 µM: 48.5
